// values below are reported Ki(A1)/Ki(A2a)
Target of assay: Adenosine A2a receptor (human) membrane (Homo sapiens)
Construct: purchased PerkinElmer RBHA2AM400UA
Sequence (P29274 whole entry): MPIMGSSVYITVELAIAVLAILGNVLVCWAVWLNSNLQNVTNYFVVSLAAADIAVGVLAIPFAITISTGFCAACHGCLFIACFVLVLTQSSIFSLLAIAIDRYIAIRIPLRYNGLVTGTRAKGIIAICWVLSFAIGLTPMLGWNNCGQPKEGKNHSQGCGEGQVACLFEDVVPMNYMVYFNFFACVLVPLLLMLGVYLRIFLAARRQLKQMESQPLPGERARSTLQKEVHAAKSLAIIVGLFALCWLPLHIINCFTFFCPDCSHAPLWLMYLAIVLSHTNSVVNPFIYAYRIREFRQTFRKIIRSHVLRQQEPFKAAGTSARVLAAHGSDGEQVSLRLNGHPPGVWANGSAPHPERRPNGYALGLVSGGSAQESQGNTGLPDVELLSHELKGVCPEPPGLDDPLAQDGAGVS
Measurement notes: Determination of competitive inhibition constant (Ki) for adenosine A2a receptor, [3H]-CGS-21680 radioligand
Format: binding
Conditions: selectivity ratio A1 over A2a
Note: the reply should be a number with no unit written.

INPUT: Return reported Ki(A1)/Ki(A2a); argument: Cc1ncnc2ccc(-c3cnc(NC(=O)N4CCC(C#N)CC4)nc3-c3ccc(F)cc3)cc12 [Compound 10]
OUTPUT: 146.8

INPUT: Return reported Ki(A1)/Ki(A2a); argument: Cc1cc(-c2c(C#N)cc(NC(=O)N3CCOCC3)nc2-c2ccc(F)cc2)cc(Cl)n1 [Compound 45]
OUTPUT: 115.3

INPUT: Return reported Ki(A1)/Ki(A2a); argument: Cc1ncnc2ccc(-c3cc(F)c(NC(=O)N(C)Cc4ccccn4)nc3-c3ccc(F)cc3)cc12 [Compound 4]
OUTPUT: 417.3

INPUT: Return reported Ki(A1)/Ki(A2a); argument: Cc1ncnc2ccc(-c3c(-c4ccc(F)cc4)nc(NC(=O)N4CCOCC4)nc3C3CC3)cc12 [Compound 44]
OUTPUT: 64.2

INPUT: Return reported Ki(A1)/Ki(A2a); argument: Cc1ncnc2ccc(-c3c(C#N)cc(NC(=O)N4CCOCC4)nc3-c3ccc(F)cc3)cc12 [Compound 43]
OUTPUT: 98.3

INPUT: Return reported Ki(A1)/Ki(A2a); argument: Cc1cc(-c2cnc(NC(=O)N(C)Cc3ccccn3)nc2-c2ccc(F)cc2)cc(Cl)n1 [Compound 14]
OUTPUT: 656.1

INPUT: Return reported Ki(A1)/Ki(A2a); argument: Cc1ncnc2ccc(-c3c(Cl)cc(NC(=O)N4CCOCC4)nc3-c3ccc(F)cc3)cc12 [Compound 42]
OUTPUT: 144.6

###

Measurement notes: Pharmacokinetics (PK) and distribution in brain tissue in rats
Format: in vivo, male SD rats
Conditions: male, SD; rat plasma, IV, 1 mg/kg; read-out: AUClast
Measure: AUC(0-t) (ng·h/mL)
Answer with a number only, understood to be in ng·h/mL.

>  <Cpd smiles>
Cc1ncnc2ccc(-c3cc(F)c(NC(=O)N4CCOCC4)nc3-c3ccc(F)cc3)cc12

>  <Readout unit>
ng·h/mL

>  <Result value>
1820

$$$$
>  <Cpd smiles>
Cc1cc(-c2cnc(NC(=O)N3CCOCC3)nc2-c2ccc(F)cc2)cc(Cl)n1

>  <Readout unit>
ng·h/mL

>  <Result value>
2630

$$$$

Here is another compound to look at.
INPUT: Return reported AUC(0-t); argument: Cc1ncnc2ccc(-c3cnc(NC(=O)N4CCOCC4)nc3-c3ccc(F)cc3)cc12
OUTPUT: 985

###

Target of assay: Adenosine A2a receptor (human) membrane (Homo sapiens)
Construct: purchased PerkinElmer RBHA2AM400UA
Measurement notes: Determination of competitive inhibition constant (Ki) for adenosine A2a receptor, [3H]-CGS-21680 radioligand
Assay type: binding
Conditions: selectivity ratio A1 over A2a
Measure: Ki(A1)/Ki(A2a)
Note: the reply should be a number with no unit written.

>  <Cpd smiles>
Cc1ncnc2ccc(-c3cnc(NC(=O)N(C)c4ccccc4)nc3-c3ccc(F)cc3)cc12

>  <Target of assay>
Adenosine A2a receptor (human) membrane (Homo sapiens)

>  <Ki(A1)/Ki(A2a)>
137.6

$$$$

INPUT: Identify the measured Ki(A1)/Ki(A2a) of Cc1ncnc2ccc(-c3cnc(NC(=O)N4C[C@@H](C)O[C@@H](C)C4)nc3-c3ccc(F)cc3)cc12 for Adenosine A2a receptor (human) membrane (Homo sapiens).
OUTPUT: 74.0

INPUT: Identify the measured Ki(A1)/Ki(A2a) of Cc1ncnc2ccc(-c3cnc(NC(=O)N4CCOCC4)nc3-c3ccc(F)cc3)cc12 for Adenosine A2a receptor (human) membrane (Homo sapiens).
OUTPUT: 59.9

INPUT: Identify the measured Ki(A1)/Ki(A2a) of Cc1ccc(-c2nc(NC(=O)N3CCC(N4CCCCC4)CC3)nnc2-c2ccc3ncnc(C)c3c2)o1 for Adenosine A2a receptor (human) membrane (Homo sapiens).
OUTPUT: 105.5

INPUT: Identify the measured Ki(A1)/Ki(A2a) of Cc1ncnc2ccc(-c3cnc(NC(=O)N(C)Cc4ccccn4)nc3-c3ccc(F)cc3)cc12 for Adenosine A2a receptor (human) membrane (Homo sapiens).
OUTPUT: 331.8

INPUT: Identify the measured Ki(A1)/Ki(A2a) of COC1CCN(C(=O)Nc2ncc(-c3ccc4ncnc(C)c4c3)c(-c3ccc(F)cc3)n2)CC1 for Adenosine A2a receptor (human) membrane (Homo sapiens).
OUTPUT: 134.5
